- EXPERIMENT: Pharmacokinetic determination in SD rats
- CONDITION_PARAMETERS: rat, in vivo, po; male SD rats, p.o. 5 mg/kg
MEASURED_ATTRIBUTE: Cmax (ng/mL)
Kindly provide the numeric value in ng/mL only, without the unit symbol.

# count of solved cases: 3
{"STRUCTURE_STRING": "Cc1c2c(c3ncnn3c1C)CN(C(=O)CC1CN(c3ccnc(OC4CC4)c3)C1)C2", "ENDPOINT_UNIT": "ng/mL", "Cmax": 967}
{"STRUCTURE_STRING": "Cc1c2c(c3ncnn3c1C)CN(C(=O)CC1CN(c3ncc(C(F)(F)F)cn3)C1)C2", "ENDPOINT_UNIT": "ng/mL", "Cmax": 1710}
{"STRUCTURE_STRING": "Cc1c2c(c3ncnn3c1C)CN(C(=O)CC1CN(c3ccnc(OC(F)F)c3)C1)C2", "ENDPOINT_UNIT": "ng/mL", "Cmax": 2450}

Cmax for Cc1c2c(c3ncnn3c1C)CN(C(=O)OC1CN(c3ccnc(C(F)(F)F)c3)C1)C2 ?
4520

Try this compound next: Cc1c2c(c3ncnn3c1C)CN(C(=O)CC1CN(c3ccc4c(cnn4C)c3)C1)C2
1330

Try this compound next: Cc1c2c(c3ccnn3c1C)CN(C(=O)CC1CN(c3ccnc(C(F)(F)F)c3)C1)C2
1090

Try this compound next: Cc1c2c(c3ncnn3c1C)CN(C(=O)CC1CN(c3ccc4nc(C(F)F)cn4n3)C1)C2
1040

Try this compound next: Cc1c2c(c3nccn3c1C)CN(C(=O)OC1CN(c3ccnc(C(F)F)c3)C1)C2
3210

Try this compound next: CCOc1ccc(N2CC(CC(=O)N3Cc4c(C)c(C)n5ncnc5c4C3)C2)cn1
2380

Try this compound next: Cc1c2c(n3ncnc3c1Cl)CN(C(=O)CC1CN(c3ncc(F)cn3)C1)C2
1460

Try this compound next: CCn1ncc2cc(N3CC(CC(=O)N4Cc5c(C)c(C)n6ncnc6c5C4)C3)ccc21
2110

Try this compound next: COc1cc(N2CC(CC(=O)N3Cc4c(C)c(C)n5ncnc5c4C3)C2)ccn1
1090

Try this compound next: Cc1c2c(c3ncnn3c1C)CN(C(=O)OC1CN(c3ccnc(OC(F)F)c3)C1)C2
2530

Try this compound next: COc1cc(N2CC(CC(=O)N3Cc4c(C)c(C)n5ncnc5c4C3)C2)c(Cl)cn1
914

Try this compound next: Cc1cn2nc(N3CC(OC(=O)N4Cc5c(C)c(C)n6ncnc6c5C4)C3)ccc2n1
2680

Try this compound next: Cc1c2c(c3ncnn3c1C)CN(C(=O)OC1CN(c3ccc4nc(C(F)F)cn4n3)C1)C2
2840

Try this compound next: Cc1c2c(c3ccnn3c1C)CN(C(=O)OC1CN(c3ccnc(C(F)F)c3)C1)C2
1380
